test system: Vero E6 infected with SARS-CoV-2; experiment: SARS-CoV-2 infection rate relative to infected DMSO; higher = more infection, active = 60 or less; details: 24 h
Pick one and only one: TRUE = active, FALSE = inactive

Exercise: Which result was noted for this molecule in the test: OB1OCc2cc(F)ccc21 [tavaborole] (10 µM)
Key: FALSE

Exercise: Recorded call for C[C@H](N[C@@H](CCc1ccccc1)C(=O)O)C(=O)N1Cc2ccccc2C[C@H]1C(=O)O [quinaprilat] (10 µM) ?
Key: FALSE

Exercise: What did the test return for c1ccc2c(-c3cnn4cc(-c5ccc(N6CCNCC6)cc5)cnc34)ccnc2c1 (10 µM) ?
Key: FALSE

Exercise: # lookup: test call for CO/N=C(\C(=O)N[C@@H]1C(=O)N2C(C(=O)O)=C(COC(N)=O)CS[C@H]12)c1ccco1 (10 µM)
Key: FALSE

Exercise: What outcome does the record of this test show for COc1cc2c(NC3CCN(C(C)C)CC3)nc(N3CCC(F)(F)CC3)nc2cc1OCCCN1CCCC1 (10 µM) ?
Key: TRUE

Exercise: Hi, do you know how CN[C@@H](C)C(=O)N[C@H](C(=O)N1CCC[C@H]1c1nc(C(=O)c2ccc(F)cc2)cs1)C1CCCCC1 (10 µM) came out in this test?
Key: FALSE

Exercise: Called result for C[C@H]1NCc2cc(-c3ccc4c(=O)c(C(=O)O)cn(C5CC5)c4c3OC(F)F)ccc21 [garenoxacin] (10 µM)
Key: FALSE

Exercise: What classification did O=C(CSc1nc2c(c(=O)n1-c1ccccc1)SCC2)Nc1ccc(-c2ccccc2)cn1 (10 µM) end up with in this test?
Key: FALSE

Exercise: Dear colleague, could you share the recorded outcome for Oc1ccc(OCc2ccccc2)cc1 [monobenzone] (10 µM) when you have a moment?
Key: FALSE

Exercise: For O=C(Nc1ccccc1-c1cn2c(CN3CCNCC3)csc2n1)c1cnc2ccccc2n1 (0.833333 µM) , what call appears in the results of this test?
Key: FALSE

Exercise: Which outcome was assigned to CNC(=O)CN(CCN(CCN(CC(=O)[O-])CC(=O)NC)CC(=O)[O-])CC(=O)[O-].[Gd+3] [gadodiamide] (10 µM) in this test?
Key: FALSE

Exercise: Test call for this molecule, please: N[C@@H](Cc1ccc(O)cc1)C(=O)O [plovamer-acetate] (10 µM)
Key: FALSE

Exercise: Status in this test for Oc1cc(Cl)ccc1Oc1ccc(Cl)cc1Cl [triclosan] (10 µM) ?
Key: FALSE

Exercise: What outcome does the record of this test show for COc1cc2c(cc1OC)-c1cc3ccc(OC)c(OC)c3c[n+]1CC2 [palmatine-chloride] (10 µM) ?
Key: FALSE

Exercise: How did this test come out for C[C@H]1[C@H](OC(=O)CCC(=O)O)O[C@@H]2O[C@@]3(C)CC[C@H]4[C@H](C)CC[C@@H]1[C@@]24OO3 [artesunate] (0.833333 µM) ?
Key: FALSE

Exercise: What classification did Cn1cc(C(F)(F)F)nc1-c1ccc(OCC(O)CNCCOc2ccc(O)c(C(N)=O)c2)cc1 (configuration not stated) (10 µM) end up with in this test?
Key: FALSE

Exercise: For COc1ccc(C(=O)c2c(C)n(CCN3CCOCC3)c3cc(I)ccc23)cc1 (10 µM) , what call appears in the results of this test?
Key: FALSE

====

system: Vero E6 infected with SARS-CoV-2; test: inhibition of SARS-CoV-2 cytopathic effect; higher = more antiviral protection, active = above 15; details: 1 nM; 48 h
OBSERVATION TYPE: inhibition of SARS-CoV-2 cytopathic effect (%)
Field: numeric (%). Do not append units.

Exercise: Which inhibition of SARS-CoV-2 cytopathic effect is reported for this compound? Cc1cccc(C)c1NC(=O)CN1CCN(CCCC(c2ccc(F)cc2)c2ccc(F)cc2)CC1
Key: -2.3

Exercise: Give its inhibition of SARS-CoV-2 cytopathic effect value. Item: CC(N)CCCC(C)(C)O (stereo unspecified)
Key: 0.22

Exercise: Which inhibition of SARS-CoV-2 cytopathic effect value is on record for C[C@]12C=CC(=O)C=C1CC[C@@H]1[C@@H]2[C@@H](O)C[C@@]2(C)[C@H]1CC[C@]2(O)C(=O)COP(=O)(O)O [prednisolone-sodium-phosphate] ?
Key: -6.31

Exercise: Bench note: what inhibition of SARS-CoV-2 cytopathic effect did CCn1cnc(C(=O)NC)c1C(=O)NC show?
Key: -1.81

Exercise: May I ask what inhibition of SARS-CoV-2 cytopathic effect has been recorded for CCCCCOc1ccc(-c2cc(-c3ccc(C(=O)N[C@H]4C[C@@H](O)[C@@H](O)NC(=O)[C@@H]5[C@@H](O)[C@@H](C)CN5C(=O)[C@H]([C@H](O)CC(N)=O)NC(=O)[C@H]([C@H](O)[C@@H](O)c5ccc(O)c(OS(=O)(=O)O)c5)NC(=O)[C@@H]5C[C@@H](O)CN5C(=O)[C@H]([C@@H](C)O)NC4=O)cc3)no2)cc1 ?
Key: -6.42

Exercise: Which inhibition of SARS-CoV-2 cytopathic effect value belongs to CN1CCN(CCCN2c3ccccc3Sc3ccc(C(F)(F)F)cc32)CC1 ?
Key: -0.89

====

Would you mind telling me the reported SARS-CoV-2 infection rate of each entry?
tested on: Vero E6 infected with SARS-CoV-2; assay: SARS-CoV-2 infection rate relative to infected DMSO; higher = more infection, active = 60 or less; settings: 24 h
Write the value in % as a bare number.

Exercise: Vero E6 infected with SARS-CoV-2 / SARS-CoV-2 infection rate / C[C@@H](c1ncncc1F)[C@](O)(Cn1cncn1)c1ccc(F)cc1F [voriconazole] (10 µM) : value?
Key: 101

Exercise: Checklist item: SARS-CoV-2 infection rate tested on Vero E6 infected with SARS-CoV-2, entry CN(C)CCN(Cc1cccs1)c1ccccn1 [methapyrilene] (10 µM) , value?
Key: 113

Exercise: SARS-CoV-2 infection rate of CN(C)CCOC(=O)C(c1ccccc1)C1(O)CCCC1 (stereo not given) [cyclopentolate] (10 µM) on Vero E6 infected with SARS-CoV-2?
Key: 93

Exercise: Request: SARS-CoV-2 infection rate, test system Vero E6 infected with SARS-CoV-2, entry O=C1c2ccccc2-n2c1nc1ccccc1c2=O [tryptanthrin] (10 µM)
Key: 96

Exercise: Please state recorded SARS-CoV-2 infection rate (tested on Vero E6 infected with SARS-CoV-2) of Cc1cc(N)c2ccccc2[n+]1CCCCCCCCCC[n+]1c(C)cc(N)c2ccccc21 [dequalinium] (10 µM)
Key: 94

====

Give measured SARS-CoV-2 infection rate for each item. Keep answers brief.
test system: Vero E6 infected with SARS-CoV-2; test: SARS-CoV-2 infection rate relative to infected DMSO; higher = more infection, active = 60 or less; settings: 24 h
Structures can show the parent of a compound that is named as a salt.
All answers are understood in %, so give the number only.

Exercise: Consider the compound C[C@@H]1CCCN1CCc1cc2cc(-c3ccc(C#N)cc3)ccc2o1 (10 µM) and give its measured SARS-CoV-2 infection rate.
Key: 80.5

Exercise: Fill blank: measured SARS-CoV-2 infection rate of the compound N#CC[C@@H](C1CCCC1)n1cc(-c2ncnc3[nH]ccc23)cn1 [ruxolitinib-(S)] (10 µM) is ____.
Key: 105

Exercise: I am curious: what SARS-CoV-2 infection rate value has been reported for N[C@H]1C[C@@H]1c1ccc(-c2cccc(O)c2)cc1 (10 µM) ?
Key: 87

Exercise: SARS-CoV-2 infection rate for O=c1[nH]c(=O)n([C@H]2C[C@H](O)[C@@H](CO)O2)cc1/C=C/Br [brivudine] (10 µM) ?
Key: 108

Exercise: Please look up its SARS-CoV-2 infection rate: N=c1ccn2c(n1)O[C@H]1[C@H](O)[C@@H](CO)O[C@H]12 [Cyclocytidine HCl] (0.833333 µM)
Key: 114

Exercise: # SARS-CoV-2 infection rate lookup, item COC(=O)C1=CCCN(C)C1 [arecoline] (10 µM)
Key: 100

Exercise: SARS-CoV-2 infection rate lookup needed for Nc1ccc(S(=O)(=O)Nc2cnc3ccccc3n2)cc1 [sulfaquinoxaline] (10 µM) , thanks.
Key: 104

Exercise: For NC(=O)[C@@H](CCC(F)(F)F)N(Cc1ccc(-c2ncon2)cc1F)S(=O)(=O)c1ccc(Cl)cc1 [avagacestat] (10 µM) , what is its reported SARS-CoV-2 infection rate?
Key: 108

====

system: Vero E6 infected with SARS-CoV-2; assay: morphology score (similarity to uninfected cells); higher = more like uninfected cells; conditions: 24 h
The label depends only on morphology score: fulfilled if it is at least -0.004, not fulfilled if it is smaller.

Exercise: Quick check: does CC[C@@H](C(=O)[C@@H](C)[C@@H](O)[C@H](C)[C@@H]1O[C@@H]([C@@H](CC)C(=O)O)CC[C@@H]1C)[C@H]1O[C@]2(C=C[C@@H](O)[C@]3(CC[C@@](C)([C@H]4CC[C@](O)(CC)[C@H](C)O4)O3)O2)[C@H](C)C[C@@H]1C [Salinomycin (Procoxacin)] (10 µM) have morphology score greater than or equal to -0.004?
Key: fulfilled

Exercise: Has COc1ccc2c(NC(=O)Nc3cccc(C(F)(F)F)n3)ccnc2c1 (10 µM) a recorded morphology score greater than or equal to -0.004?
Key: not fulfilled

Exercise: Item CC(=O)/N=c1/[nH]c(C)c(-c2ccc(Cl)c(S(=O)(=O)NCCO)c2)s1 (0.833333 µM) with morphology score of -0.004 or above?
Key: fulfilled

Exercise: # check: morphology score of Nc1cc(C(F)(F)F)c(-c2nc(N3CCOCC3)nc(N3CCOCC3)n2)cn1 (10 µM) is greater than or equal to -0.004
Key: fulfilled

Exercise: Reported morphology score reaches at least -0.004 for Nc1nc(NCCc2ccc(O)cc2)nc2nc(-c3ccco3)nn12 (10 µM) ?
Key: not fulfilled

Exercise: Please check the record CCNCc1cc(C(C)(C)C)c(O)c(C(C)(C)C)c1 (10 µM) and state if its morphology score is at or above -0.004.
Key: fulfilled

Exercise: Record COc1cc2nc(N3CCN(C(=O)c4ccco4)CC3)nc(N)c2cc1OC [prazosin] (10 µM) ; criterion: morphology score no lower than -0.004. Met?
Key: not fulfilled

Ref: the supplement of paper PMC13380429
